# assay explanation: Acute intravenous toxicity in mice, products of Examples 10 to 13 (LD50)
# study conditions: mouse, in vivo, i.v., group consisting solely of female mice
Counter-ions that a name gives are not always drawn.
property measured: LD50

Problem: Need LD50 of COc1cc(OC)c(C(=O)CN2CCN(CC3COc4ccccc4O3)CC2)c(OC)c1 (stereo not shown) [Example 13, dihydrochloride] , thanks.
Solution: 58 mg/kg

* * *

# assay explanation: Acute intravenous toxicity in mice, products of Examples 10 to 13 (LD50)
# study conditions: mouse, in vivo, i.v., group of male and female mice
Structures can show the parent of a compound that is named as a salt.
property measured: LD50

Problem: Need LD50 of COc1cc(OC)cc(OCCN2CCN(CC3COc4ccccc4O3)CC2)c1 (stereo not shown) [Example 11, dihydrochloride] , thanks.
Solution: 60 mg/kg
